TESTED_TARGET: Epidermal growth factor receptor (Homo sapiens, UniProt P00533)
Sequence (P00533 whole entry): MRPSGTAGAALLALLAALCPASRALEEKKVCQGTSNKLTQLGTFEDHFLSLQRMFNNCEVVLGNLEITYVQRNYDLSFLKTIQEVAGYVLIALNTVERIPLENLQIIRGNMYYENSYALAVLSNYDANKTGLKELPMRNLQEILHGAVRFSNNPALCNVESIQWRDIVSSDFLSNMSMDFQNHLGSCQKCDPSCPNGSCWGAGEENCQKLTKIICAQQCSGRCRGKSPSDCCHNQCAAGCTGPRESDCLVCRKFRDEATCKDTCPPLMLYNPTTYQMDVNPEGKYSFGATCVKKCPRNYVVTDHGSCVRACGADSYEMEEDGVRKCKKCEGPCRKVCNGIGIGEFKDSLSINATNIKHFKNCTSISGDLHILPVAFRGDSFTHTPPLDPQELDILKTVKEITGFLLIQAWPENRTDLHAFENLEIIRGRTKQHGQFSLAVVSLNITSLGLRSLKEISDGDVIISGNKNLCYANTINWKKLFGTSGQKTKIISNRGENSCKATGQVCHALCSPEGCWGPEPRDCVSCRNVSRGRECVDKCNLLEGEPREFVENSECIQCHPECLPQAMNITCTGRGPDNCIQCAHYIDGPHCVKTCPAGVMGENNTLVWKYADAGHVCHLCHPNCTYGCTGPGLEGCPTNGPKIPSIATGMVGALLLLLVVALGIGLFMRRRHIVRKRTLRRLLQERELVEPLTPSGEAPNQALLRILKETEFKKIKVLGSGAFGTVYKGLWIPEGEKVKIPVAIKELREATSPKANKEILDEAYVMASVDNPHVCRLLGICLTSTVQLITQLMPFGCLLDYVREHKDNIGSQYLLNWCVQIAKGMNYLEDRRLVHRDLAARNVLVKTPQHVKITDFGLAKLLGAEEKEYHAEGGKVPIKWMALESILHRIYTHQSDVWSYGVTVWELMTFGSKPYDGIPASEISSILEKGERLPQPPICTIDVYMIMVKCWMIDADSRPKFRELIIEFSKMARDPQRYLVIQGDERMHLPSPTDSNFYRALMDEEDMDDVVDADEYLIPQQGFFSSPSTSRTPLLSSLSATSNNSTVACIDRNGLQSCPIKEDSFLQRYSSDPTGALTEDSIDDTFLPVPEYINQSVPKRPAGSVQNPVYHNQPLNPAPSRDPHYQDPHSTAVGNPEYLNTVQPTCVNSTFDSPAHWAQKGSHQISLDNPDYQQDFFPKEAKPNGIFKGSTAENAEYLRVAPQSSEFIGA
Each entry below carries its reported IC50.

[
  {
    "CHEMICAL_SMILES": "O=c1ccc2ccc(Oc3nc(Nc4ccc(N5CCOCC5)cc4)nc4ccsc34)cc2[nH]1",
    "PROPERTY": "IC50",
    "ENDPOINT_VALUE": "> 10 µM"
  }
]

Data request: Report value: IC50, system: Epidermal growth factor receptor (Homo sapiens, UniProt P00533), molecule: "CCN1CCN(c2nc(Oc3ccc4ccc(=O)[nH]c4c3)c3sccc3n2)CC1"
Data returned: > 10 µM

Data request: Report value: IC50, system: Epidermal growth factor receptor (Homo sapiens, UniProt P00533), molecule: "CN1CCN(c2ccc(Nc3nc(Oc4ccc5ccc(=O)[nH]c5c4)c4sccc4n3)cc2)CC1"
Data returned: > 10 µM

Data request: Report value: IC50, system: Epidermal growth factor receptor (Homo sapiens, UniProt P00533), molecule: "CN1CCN(c2ccc(Nc3nc(Oc4ccc5ccc(=O)[nH]c5c4)c4sccc4n3)cc2F)CC1"
Data returned: > 10 µM

Data request: Report value: IC50, system: Epidermal growth factor receptor (Homo sapiens, UniProt P00533), molecule: "CN(C)CCNc1ccc(Nc2nc(Oc3ccc4ccc(=O)[nH]c4c3)c3sccc3n2)cc1F"
Data returned: 14 µM
